Catalogue of molecules with associated inhibition at 1 µM
Target Under Test: FKBP12 (Homo sapiens)
Sequence (P62942 whole entry, species assumed): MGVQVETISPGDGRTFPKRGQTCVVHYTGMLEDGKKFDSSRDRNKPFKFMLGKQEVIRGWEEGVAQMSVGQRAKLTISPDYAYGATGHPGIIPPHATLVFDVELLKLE
Protocol Details: FKBP12 Rotamase Inhibition Assay
Assay type: biochemical
Experimental Context: Table 3; 1 μM; read-out: % rotamase inhib. at 1 μM
Reported Endpoint: inhibition at 1 µM

{"Molecular String": "COc1cccc(CCCN(CCCc2cccnc2)C(=O)OC[C@@H]2CCCN2C(=O)C(F)(F)c2cc(OC)c(OC)c(OC)c2)c1", "Assay Value": "93%"}
{"Molecular String": "COc1ccc(CCCCN(CCCc2cccnc2)C(=O)OC[C@@H]2CCCN2C(=O)C(F)(F)c2cc(OC)c(OC)c(OC)c2)cc1OC", "Assay Value": "98%"}
{"Molecular String": "COc1cc(CCCN(CCCc2cccnc2)C(=O)OC[C@@H]2CCCN2C(=O)C(F)(F)c2cc(OC)c(OC)c(OC)c2)cc(OC)c1OC", "Assay Value": "92%"}
{"Molecular String": "COc1cc(C(F)(F)C(=O)N2CCC[C@H]2COC(=O)N(CCCc2ccc(C(=O)OCc3ccccc3)cc2)CCCc2cccnc2)cc(OC)c1OC", "Assay Value": "77%"}
{"Molecular String": "COc1cc(CCCN(CCCc2cccnc2)C(=O)OC[C@@H]2CCCN2C(=O)C(=O)c2cc(OC)c(OC)c(OC)c2)cc(OC)c1OC", "Assay Value": "68%"}
{"Molecular String": "COc1cc(C(F)(F)C(=O)N2CCC[C@H]2COC(=O)N(CCCc2ccc(C(=O)O)cc2)CCCc2cccnc2)cc(OC)c1OC", "Assay Value": "94%"}
